- measured-on: rM4 receptors (Rattus norvegicus)
- Sequence (P08485 whole entry): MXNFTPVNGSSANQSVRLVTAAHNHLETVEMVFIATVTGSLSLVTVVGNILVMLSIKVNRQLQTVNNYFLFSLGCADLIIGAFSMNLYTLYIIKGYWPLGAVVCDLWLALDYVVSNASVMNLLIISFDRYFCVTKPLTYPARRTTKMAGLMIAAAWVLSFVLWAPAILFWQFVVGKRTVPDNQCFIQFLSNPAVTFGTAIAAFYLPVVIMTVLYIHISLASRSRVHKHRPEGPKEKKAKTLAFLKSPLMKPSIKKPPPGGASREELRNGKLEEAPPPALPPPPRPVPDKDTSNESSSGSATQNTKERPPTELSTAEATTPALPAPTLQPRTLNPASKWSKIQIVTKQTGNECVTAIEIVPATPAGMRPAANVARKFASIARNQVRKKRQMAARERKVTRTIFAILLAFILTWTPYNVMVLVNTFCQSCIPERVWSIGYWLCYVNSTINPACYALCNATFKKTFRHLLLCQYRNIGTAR
- assay-text: Rat M4 PAM PERK assay (CHO cells, TR-FRET, with EC20 acetylcholine)
pEC50: −log10 of the molar value.
measured-metric: pEC50

Value lookup for pEC50; key = Cc1c2c(n(C)c(=O)c1C)CN(C(=O)CC1CN(c3cnc(C4CC4)cn3)C1)C2 [Compound I-58]
6.70 to 7.30

For the molecule Cc1c2c(n(CC(F)(F)F)c(=O)c1Cl)CN(C(=O)CC1CN(c3ccccc3)C1)C2 [Compound I-94] , what pEC50 is on record?
6.00 to 6.70

Query (molecule): Cc1cc(=O)n(C)c2c1CN(C(=O)CC1CN(c3nc(C(F)(F)F)ns3)C1)C2 [Compound I-28] ; field requested: pEC50
6.00 to 6.70

# query: pEC50 of entry Cc1cc(=O)n(C)c2c1CN(C(=O)CC1CN(c3ccc(C(F)(F)F)cn3)C1)C2 [Compound I-8]
< 6.00

Any idea what its pEC50 is? The molecule is Cc1cc(=O)n(C)c2c1CN(C(=O)CC1CN(c3cnc(C(F)(F)F)cn3)C1)C2 [Compound I-26]
6.70 to 7.30

# pEC50 lookup, item Cc1c2c(n(C)c(=O)c1Cl)CN(C(=O)CC1CN(c3ccccc3C(F)(F)F)C1)C2 [Compound I-74]
6.00 to 6.70

For the molecule Cc1cc(=O)n(C)c2c1CN(C(=O)CC1CN(c3cc(C4CC4)c(C#N)c(C(F)(F)F)c3)C1)C2 [Compound I-40] , what pEC50 is on record?
6.00 to 6.70

# lookup: pEC50 of Cc1c2c(n(CC(F)(F)F)c(=O)c1Cl)CN(C(=O)CC1CN(c3cccnc3)C1)C2 [Compound I-93]
6.70 to 7.30
